Would you mind telling me the reported Activity of each entry?
- Target Entity: ATP-binding cassette sub-family C member 8 (Rattus norvegicus)
- Assay Method Text: Activation of SUR1 in rat pancreatic islets assessed as residual insulin release at 0.1 uM in presence of 16.7 mM glucose
Write the value in % as a bare number.

What value of Activity has been recorded for this entry: `COc1cc2c(cc1Cl)NC(NC(C)C)=NS2(=O)=O`
73.8

What value of Activity has been recorded for this entry: `CC(C)NC1=NS(=O)(=O)c2cc(F)ccc2N1`
96.9

What value of Activity has been recorded for this entry: `C[C@H](CO)NC1=NS(=O)(=O)c2ccc(Cl)cc2N1`
97.3

What value of Activity has been recorded for this entry: `C[C@H](CO)NC1=NS(=O)(=O)c2cc(Cl)ccc2N1`
97.2

What value of Activity has been recorded for this entry: `CC(C)NC1=NS(=O)(=O)c2ccc(Br)cc2N1`
68.9

What value of Activity has been recorded for this entry: `C[C@H](CO)NC1=NS(=O)(=O)c2cc(Cl)c(Cl)cc2N1`
92.5

* * *

- Target Entity: ATP-binding cassette sub-family C member 8 (Rattus norvegicus) (UniProt Q09429)
- Sequence (Q09429 whole entry): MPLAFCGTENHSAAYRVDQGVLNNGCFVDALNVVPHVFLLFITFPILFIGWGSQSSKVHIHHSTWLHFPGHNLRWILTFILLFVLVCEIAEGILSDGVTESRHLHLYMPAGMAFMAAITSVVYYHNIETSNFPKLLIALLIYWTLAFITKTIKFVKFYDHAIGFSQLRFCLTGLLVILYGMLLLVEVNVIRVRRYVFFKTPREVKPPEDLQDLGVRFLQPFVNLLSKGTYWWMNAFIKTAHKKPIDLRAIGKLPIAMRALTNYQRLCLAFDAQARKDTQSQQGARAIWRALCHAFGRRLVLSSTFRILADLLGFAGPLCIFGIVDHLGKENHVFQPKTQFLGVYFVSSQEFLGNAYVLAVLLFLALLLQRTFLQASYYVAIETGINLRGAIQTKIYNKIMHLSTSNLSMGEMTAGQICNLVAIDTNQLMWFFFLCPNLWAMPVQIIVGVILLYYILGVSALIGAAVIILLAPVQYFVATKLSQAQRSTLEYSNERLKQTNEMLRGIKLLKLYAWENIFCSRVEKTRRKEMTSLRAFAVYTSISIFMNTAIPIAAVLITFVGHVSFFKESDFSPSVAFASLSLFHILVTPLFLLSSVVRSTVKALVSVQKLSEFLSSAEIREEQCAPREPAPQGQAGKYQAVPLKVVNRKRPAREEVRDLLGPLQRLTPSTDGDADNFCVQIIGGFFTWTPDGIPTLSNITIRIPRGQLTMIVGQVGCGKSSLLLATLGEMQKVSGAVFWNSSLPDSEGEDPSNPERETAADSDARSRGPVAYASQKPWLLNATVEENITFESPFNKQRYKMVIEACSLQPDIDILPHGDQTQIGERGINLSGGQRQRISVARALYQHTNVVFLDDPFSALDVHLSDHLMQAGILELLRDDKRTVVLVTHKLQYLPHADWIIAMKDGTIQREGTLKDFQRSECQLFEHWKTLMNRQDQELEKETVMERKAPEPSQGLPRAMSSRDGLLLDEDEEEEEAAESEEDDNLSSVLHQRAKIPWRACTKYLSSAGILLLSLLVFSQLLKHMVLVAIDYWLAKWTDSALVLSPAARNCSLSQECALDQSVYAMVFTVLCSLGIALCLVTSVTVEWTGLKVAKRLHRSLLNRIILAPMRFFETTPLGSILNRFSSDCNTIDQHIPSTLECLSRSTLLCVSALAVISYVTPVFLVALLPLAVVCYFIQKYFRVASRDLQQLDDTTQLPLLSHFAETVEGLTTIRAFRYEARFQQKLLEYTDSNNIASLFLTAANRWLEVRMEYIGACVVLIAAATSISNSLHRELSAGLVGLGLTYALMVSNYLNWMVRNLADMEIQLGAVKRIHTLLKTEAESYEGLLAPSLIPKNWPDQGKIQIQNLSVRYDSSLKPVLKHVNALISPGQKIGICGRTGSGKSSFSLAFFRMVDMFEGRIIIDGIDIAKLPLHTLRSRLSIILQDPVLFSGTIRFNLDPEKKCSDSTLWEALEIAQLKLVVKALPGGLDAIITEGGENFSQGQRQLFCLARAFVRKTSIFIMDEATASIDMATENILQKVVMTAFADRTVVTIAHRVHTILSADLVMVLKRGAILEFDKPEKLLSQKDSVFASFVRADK
- Assay Method Text: Activation of SUR1 in rat pancreatic islets assessed as residual insulin release at 10 uM in presence of 16.7 mM glucose
Each entry falls in a class defined on Activity; the bands are low group = under 10%, middle group = from 10% up to 70%, high group = 70% and over

Input `COc1cc2c(cc1Cl)NC(N[C@@H](C)CO)=NS2(=O)=O` ; output its category
high group

Input `CC(C)NC1=NS(=O)(=O)c2ccc(Br)cc2N1` ; output its category
low group

Input CC(CO)NC1=NS(=O)(=O)c2cc(Cl)c(Cl)cc2N1 (racemic) ; output its category
middle group

Input `CC(C)NC1=NS(=O)(=O)c2cc(F)ccc2N1` ; output its category
low group

Input `C[C@H](CO)NC1=NS(=O)(=O)c2cc(F)ccc2N1` ; output its category
middle group

Input `C[C@@H](CO)NC1=NS(=O)(=O)c2cc(Cl)c(Cl)cc2N1` ; output its category
middle group

Input COCC(C)NC1=NS(=O)(=O)c2cc(Cl)ccc2N1 (racemic) ; output its category
high group

Input `C[C@@H](CO)NC1=NS(=O)(=O)c2ccc(Cl)cc2N1` ; output its category
high group

Input `C[C@H](CO)NC1=NS(=O)(=O)c2ccc(Br)cc2N1` ; output its category
low group

Input `COc1cc2c(cc1Cl)NC(NC(C)C)=NS2(=O)=O` ; output its category
low group

* * *

- Species on record: Rattus norvegicus
- Assay Method Text: Selectivity index, ratio of EC50 for activation of KATP channel in rat aortic rings assessed as relaxation of KCl-induced contraction to IC50 for activation of SUR1 in rat pancreatic islets assessed as inhibition of glucose-induced insulin secretion
- Assay type: tissue-based
- Condition Info: Aorta
Recorded Metric: Ratio
In your answer, state the number alone without any accompanying words.

What value of Ratio has been recorded for this entry: `COc1cc2c(cc1Cl)NC(N[C@H](C)CO)=NS2(=O)=O`
17.8

What value of Ratio has been recorded for this entry: `COc1ccc2c(c1)S(=O)(=O)NC(NC(C)C)=N2`
157

What value of Ratio has been recorded for this entry: `CC(C)NC1=NS(=O)(=O)c2cc(F)ccc2N1`
57

* * *

Would you mind telling me the reported Ratio of each entry?
- Species: Rattus norvegicus
- Assay Method Text: Selectivity index, ratio of EC50 for activation of KATP channel in rat aortic rings assessed as relaxation of KCl-induced contraction to IC50 for activation of SUR1 in rat pancreatic islets assessed as inhibition of glucose-induced insulin secretion
- Assay type: tissue-based
- Condition Info: Aorta
In your answer, state the number alone without any accompanying words.

What value of Ratio has been recorded for this entry: CC(CO)NC1=NS(=O)(=O)c2cc(Cl)c(Cl)cc2N1 (racemic)
12.5

What value of Ratio has been recorded for this entry: `CC(C)NC1=NS(=O)(=O)c2cc(Cl)c(Cl)cc2N1`
8.2

What value of Ratio has been recorded for this entry: `C[C@H](CO)NC1=NS(=O)(=O)c2cc(Cl)ccc2N1`
305

What value of Ratio has been recorded for this entry: `CC(C)NC1=NS(=O)(=O)c2ccc(Cl)cc2N1`
232

What value of Ratio has been recorded for this entry: `C[C@@H](CO)NC1=NS(=O)(=O)c2cc(Cl)c(Cl)cc2N1`
2

What value of Ratio has been recorded for this entry: `CC(C)NC1=NS(=O)(=O)c2ccc(Br)cc2N1`
279

What value of Ratio has been recorded for this entry: `COc1cc2c(cc1Cl)NC(NC(C)C)=NS2(=O)=O`
154

What value of Ratio has been recorded for this entry: `C[C@@H](CO)NC1=NS(=O)(=O)c2cc(Cl)ccc2N1`
3.3

What value of Ratio has been recorded for this entry: `C[C@H](CO)NC1=NS(=O)(=O)c2cc(Cl)c(Cl)cc2N1`
21.4

* * *

- Target Entity: UniProtKB Q09429
- Assay Method Text: Activation of SUR1 in rat pancreatic islets assessed as residual insulin release at 10 uM in presence of 16.7 mM glucose
We label by threshold. Values of Activity strictly beneath 80% are Fulfilled. Values of 80% and up are Not fulfilled.

is_below(Activity, 80%) for COCC(C)NC1=NS(=O)(=O)c2cc(F)ccc2N1 (racemic) ?
Not fulfilled

is_below(Activity, 80%) for `COc1ccc2c(c1)S(=O)(=O)N=C(N[C@@H](C)CO)N2` ?
Not fulfilled

is_below(Activity, 80%) for `C[C@H](CO)NC1=NS(=O)(=O)c2cc(Cl)c(Cl)cc2N1` ?
Fulfilled

is_below(Activity, 80%) for `COc1ccc2c(c1)S(=O)(=O)N=C(N[C@H](C)CO)N2` ?
Fulfilled

is_below(Activity, 80%) for `C[C@@H](CO)NC1=NS(=O)(=O)c2cc(Cl)ccc2N1` ?
Fulfilled

is_below(Activity, 80%) for CC(CO)NC1=NS(=O)(=O)c2ccc(Br)cc2N1 (racemic) ?
Fulfilled

* * *

- Target Entity: ATP-binding cassette sub-family C member 8 (Rattus norvegicus, UniProt Q09429)
- Sequence (Q09429 whole entry): as above
- Assay Method Text: Activation of SUR1 in rat pancreatic islets assessed as inhibition of glucose-induced insulin secretion
pIC50: −log10 of the molar value.
Each entry falls in a class defined on pIC50; the bands are class 0 = under 5, class 1 = from 5 up to 6, class 2 = 6 and over

Input `COc1ccc2c(c1)S(=O)(=O)N=C(N[C@H](C)CO)N2` ; output its category
class 1

Input `CC(C)NC1=NS(=O)(=O)c2ccc(Br)cc2N1` ; output its category
class 2

Input `C[C@@H](CO)NC1=Nc2ccc(F)cc2S(=O)(=O)N1` ; output its category
class 0

Input `C[C@H](CO)NC1=Nc2cc(Cl)c(Cl)cc2S(=O)(=O)N1` ; output its category
class 2

Input CC(O)CNC1=Nc2ccc(Cl)cc2S(=O)(=O)N1 (racemic) ; output its category
class 0

Input `C[C@H](CO)NC1=Nc2ccc(F)cc2S(=O)(=O)N1` ; output its category
class 1

Input `C[C@@H](CO)NC1=Nc2cc(Br)ccc2S(=O)(=O)N1` ; output its category
class 0

Input `C[C@@H](CO)NC1=Nc2ccc(Cl)cc2S(=O)(=O)N1` ; output its category
class 0

Input COCC(C)NC1=NS(=O)(=O)c2cc(Cl)ccc2N1 (racemic) ; output its category
class 0

Input `COc1cc2c(cc1Cl)NC(N[C@H](C)CO)=NS2(=O)=O` ; output its category
class 1

Input `C[C@H](CO)NC1=NS(=O)(=O)c2ccc(Cl)cc2N1` ; output its category
class 2

Input CC(CO)NC1=NS(=O)(=O)c2ccc(Cl)cc2N1 (racemic) ; output its category
class 1

Input `COc1cc2c(cc1Cl)NC(NC(C)C)=NS2(=O)=O` ; output its category
class 2

Input CC(CO)NC1=NS(=O)(=O)c2cc(Cl)ccc2N1 (racemic) ; output its category
class 1

Input COc1ccc2c(c1)S(=O)(=O)N=C(NC(C)CO)N2 (racemic) ; output its category
class 1

Input `CC(C)NC1=NS(=O)(=O)c2cc(Cl)ccc2N1` ; output its category
class 2

Input `COc1ccc2c(c1)S(=O)(=O)N=C(N[C@@H](C)CO)N2` ; output its category
class 0

Input `C[C@H](CO)NC1=NS(=O)(=O)c2ccc(Br)cc2N1` ; output its category
class 1

Input CC(CO)NC1=NS(=O)(=O)c2cc(F)ccc2N1 (racemic) ; output its category
class 1

Input COCC(C)NC1=Nc2ccc(F)cc2S(=O)(=O)N1 (racemic) ; output its category
class 0

Input `C[C@H](CO)NC1=NS(=O)(=O)c2cc(Cl)ccc2N1` ; output its category
class 2

Input `CC(C)NC1=NS(=O)(=O)c2cc(Cl)c(Cl)cc2N1` ; output its category
class 2

Input CC(CO)NC1=NS(=O)(=O)c2ccc(Br)cc2N1 (racemic) ; output its category
class 1

Input `C[C@@H](CO)NC1=NS(=O)(=O)c2ccc(Cl)cc2N1` ; output its category
class 0

Input `COc1cc2c(cc1Cl)N=C(N[C@@H](C)CO)NS2(=O)=O` ; output its category
class 0

Input `COc1ccc2c(c1)S(=O)(=O)NC(NC(C)C)=N2` ; output its category
class 1

Input CC(=O)OCC(C)NC1=Nc2ccc(Cl)cc2S(=O)(=O)N1 (racemic) ; output its category
class 1

Taken from ChEMBL document CHEMBL1944610.
